Experiment: Toxicity in ip dosed mouse
Type: organism-based
Conditions: in vivo
Experimental readout: LD50

INSERT INTO measurements (given_smiles, val) VALUES
  ('N=C(N)CCNC(=O)c1c[nH]c2nc(N)nc(O)c12', '> 100 mg/kg'),
  ('NCCCNC(=O)c1c[nH]c2nc(N)nc(O)c12', '> 100 mg/kg');
